These measurements were taken from patent US20160208233A1.

- ASSAYED SYSTEM: T1, Abz-LPETGK(Dnp)-CONH2
- T1 chain: LPETGK
Non-standard residues stand in square brackets, D forms with d. No end group written: not given here. *: point of attachment. Dnp = O=[N+]([O-])c1ccc(*)c([N+](=O)[O-])c1; 2Abz = Nc1ccccc1C(=O)O
READOUT TYPE: Avg kcat/KM
The response must contain the number and no unit.

PROTEIN	Avg kcat/KM
eSrtA(4S-3) (protein) QAKPQIPKDKSKVAGYIEIPDADIKEPVYPGPATREQLSRGVSFTEENESLDDQNISITGHTSIGRPNYQFTNLRAAKKGSMVYFKVGNETRKYKMTSIRNVKPTAVEVLDEQEGKDEQLTLVTCDDYNEETGVWETRKIFVATEVK	3.12
eSrtA(4S-3.5) (protein) QAKPQIPKDKSKVAGYIEIPDADIKEPVYPGPATREQLNRGVSFTEENESLDDQNISITGHTFIDRPNYQFTNLKAAKKGSMVYFKVGNETRKYKMTSIRNVKPTAVEVLDEQKGKDKQLTLVTCDDYNEETGVWETRKIFVATEVK	133
eSrtA(2A-3.5) (enzyme) QAKPQIPKDKSKVAGYIEIPDADIKEPVYPGPATREQLNRGVSFAEENESLDDQNISIAGHTFIDRPNYQFTNLKAAKKGSMVYFKVGNETRKYKMTSIRNVRPTAVEILDEQKGKDKQLTLFTCDDYNEETGVWETRKIFVATEVK	406

# context switch: different protein, same Avg kcat/KM
State the recorded Avg kcat/KM for this entry: eSrtA(4S-5) (protein) QAKPQIPKDKSKVAGYIEIPDADIKEPVYPGPATREQLDRGVSFVEENESLDDQNISITGHTAIDRPNYQFTNLRAAKKGSMVYFKVGNETRKYKMTSIRNVKPTAVEVLDEQKGKDKQLTLVTCDDYNEETGVWETRKIFVATEVK
530
